test: chemical genetic growth profiling, strain panel (AID 1159580);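 also: tested at 20 µM; growth read once vehicle control cultures reached saturation at 30 °C; 1 = growth at the plate median or of vehicle wells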; conditions: S. cerevisiae deletion strains, growth OD, locus YOR083W, strain WHI5 (second series)
Among all 5,500 compounds or so, about 2,000 (36%) were called active. Not shown: some 18% with an inconclusive outcome. Rule as the data show it: active = normalized growth mostly below about 0.91 (no sharp cut-off); inconclusive = no clear call, values can overlap the other calls; inactive = mostly above about 0.92. This is one part of the list.
Please state which outcome applies, choosing from active, inactive

A selection of reference data follows.
{"Record Smiles": "NCCC(=O)NCCc1cnc[nH]1", "Assigned Class": "inactive"}
{"Record Smiles": "NCCc1cnc[nH]1", "Assigned Class": "active"}
{"Record Smiles": "O=C1NCC2(CCN(CCc3ccccc3)CC2)O1", "Assigned Class": "inactive"}

Please turn your attention to the following entry.
Record lookup: outcome of this test for c1ccc(CCCN2CCN(CCOC(c3ccccc3)c3ccccc3)CC2)cc1 ?
inactive

* * *

test: chemical genetic growth profiling, strain panel (AID 1159580);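 also: tested at 20 µM; growth read once vehicle control cultures reached saturation at 30 °C; 1 = growth at the plate median or of vehicle wells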; settings: S. cerevisiae deletion strains, growth OD, locus YPL051W, strain arl3, stronger effect = lower value
Hit rate of the full screen: of about 5,500 compounds, about 2,000 (36%) were called active. About 18% were inconclusive and are not listed. This is one part of the list.
Readout: normalized growth
Response field accepts a number only; no unit should be typed.

Observe how each entry below is paired with its result.
{"Compound": "O=C1CCC(N2C(=O)c3ccccc3C2=O)C(=O)N1 (stereo unspecified)", "normalized growth": 1}
{"Compound": "CCC[C@H](N[C@@H](C)C(=O)N1[C@H](C(=O)O)C[C@@H]2CCCC[C@@H]21)C(=O)OCC", "normalized growth": 1.02}
{"Compound": "Nc1nc(=S)c2[nH]cnc2[nH]1", "normalized growth": 0.964}
{"Compound": "CC1(O)CC2C(CC1O)C2(C)C (stereo unspecified)", "normalized growth": 1}
{"Compound": "Cc1ccc(S(=O)(=O)NC(=O)NN2CCCCCC2)cc1", "normalized growth": 0.969}

The record that follows has no normalized growth shown yet.
Returns the measured normalized growth for the input compound. Input: C=CCc1ccc(OC)cc1
1.01

* * *

test: chemical genetic growth profiling, strain panel (AID 1159580);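 also: tested at 20 µM; growth read once vehicle control cultures reached saturation at 30 °C; 1 = growth at the plate median or of vehicle wells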; settings: S. cerevisiae deletion strains, growth OD, locus YML016C, strain PPZ1, stronger effect = lower value
Among all 5,500 compounds or so, about 2,000 (36%) were called active. About 18% were inconclusive and are not listed. This is one part of the list.
In this section we review reported normalized growth values for a set of molecules.
The response must contain the number and no unit.

{"Molecule": "CC1(C)S[C@@H]2[C@H](NC(=O)[C@H](N)c3ccccc3)C(=O)N2[C@H]1C(=O)O", "normalized growth": 1.01}

Data request, read-out normalized growth, for CNC(=O)O/N=C(\C)SC
1.01

Param item = CCC(C)C(=O)O[C@@H]1C[C@@]2(C)[C@H](c3ccoc3)OC(=O)CC23OC2(C)O[C@]14[C@]1(C)[C@@H](CC(=O)OC)C5(C)CC1(O)[C@](O)(C5OC(=O)C1(C)OC1C)[C@@H](OC(C)=O)[C@]34O2 (some centres not stated) ; retrieve measured normalized growth.
1

What measured normalized growth goes with CCN(CC)Cc1ccc(Nc2ccnc3cc(Cl)ccc23)cc1O ?
1

normalized growth lookup needed for NS(=O)(=O)c1cc2c(cc1Cl)NC=NS2(=O)=O , thanks.
1

Quick one: normalized growth for COc1cc(OC)c2c(c1)O[C@H](c1cc(OC)c(OC)c(OC)c1)[C@H](OC(=O)c1cc(OC)c(OC)c(OC)c1)C2 ?
1

Entry under review: COC(=O)C[C@H]1C2(C)CC34OC5(C)O[C@@]6([C@H](OC)C(OC(=O)C(C)C)[C@]7(C)C(/C(=C(/OC)C(C)C)C(=O)O[C@H]7c7ccoc7)[C@@]6(O5)[C@H](OC)[C@@]3(OC)C2OC(C)=O)[C@]14C (some centres not stated) . Reported normalized growth?
1.01

Look up normalized growth: C[C@]12CCC(=O)C=C1C=CC1C2CC[C@@]2(C)C1CC[C@@]21CCC(=O)O1 (some centres not stated)
0.973

Requested read-out: normalized growth. Entry: c1ccc2c(c1)sc1ccccc12
0.988

I have this molecule here, COc1ccc(C(CN(C)C)C2(O)CCCCC2)cc1 (configuration not stated) , and I need its recorded normalized growth.
1.01

Recorded normalized growth for C[C@]12CCC(=O)C=C1C=CC1C2CC[C@@]2(C)C1CC[C@@]2(O)CCC(=O)O (some centres not stated) , please?
0.99

Which value of normalized growth has been reported for COC(=O)C[C@H]1C2(C)CC34OC5(C)O[C@@]6([C@H](OC(C)=O)C(OC(C)=O)[C@]7(C)C(/C(=C(/O)C(C)C)C(=O)O[C@H]7c7ccoc7)[C@@]6(O5)[C@H](OC(C)=O)[C@@]3(O)C2OC(=O)C(C)C)[C@]14C (some centres not stated) in the records?
0.995

Fill in the blank: the reported normalized growth of O=C(O)CCCc1ccc(N(CCCl)CCCl)cc1 is ____.
0.984

Can you share its normalized growth? I mean this molecule: CCC(C)C(=O)O[C@@H]1C[C@@]2(C)[C@H](c3ccoc3)OC(=O)CC23OC2(C)OC34[C@H](OC(=O)C(C)C)[C@@]3(O)[C@@H](OC(=O)C5(C)OC5C)[C@@]5(C)C[C@]3(O)[C@@](C)([C@H]5CC(=O)OC)C14O2 (some centres not stated)
1.01

I'd like to know its normalized growth. The molecule in question is COc1ccc(CN(CCN(C)C)c2ccccn2)cc1
0.997

Value lookup for normalized growth; key = Cc1ncc(CNC(=O)N(CCCl)N=O)c(N)n1
1.02

Entry N[C@@H](Cc1ccc(N(CCCl)CCCl)cc1)C(=O)O has what normalized growth?
0.982

Please look up its normalized growth: CC(=O)Oc1cc(OC(C)=O)c2c(c1)O[C@H](c1ccc(OC(C)=O)c(OC(C)=O)c1)[C@H](OC(C)=O)C2
1.01

Each recorded value in this set is attributed to PubChem BioAssay AID1159580.
